# ASSAYED_TARGET: UniProt:P31391
# ASSAY_METHOD_TEXT: Evaluation of agonist activities using human SSTR4-stably expressing cells (aequorin luminescence)
# COND: luminescence signal; 1 μmol/L somatostatin taken as 100%
ASSAY_READOUT: EC50 (nM)

- COMPOUND: "CN1CCC[C@H](C(=O)NC(C)(C)c2cc(F)ccc2Cl)C1"
  EC50 [nM]: 7.1
- COMPOUND: "Cc1cccc(C(C)(C)NC(=O)C2CCCN(C)C2)c1C (centres unmarked)"
  EC50 [nM]: 8.9

###

# ASSAYED_TARGET: human SSTR4 (Homo sapiens, UniProt P31391)
# Sequence (P31391 whole entry): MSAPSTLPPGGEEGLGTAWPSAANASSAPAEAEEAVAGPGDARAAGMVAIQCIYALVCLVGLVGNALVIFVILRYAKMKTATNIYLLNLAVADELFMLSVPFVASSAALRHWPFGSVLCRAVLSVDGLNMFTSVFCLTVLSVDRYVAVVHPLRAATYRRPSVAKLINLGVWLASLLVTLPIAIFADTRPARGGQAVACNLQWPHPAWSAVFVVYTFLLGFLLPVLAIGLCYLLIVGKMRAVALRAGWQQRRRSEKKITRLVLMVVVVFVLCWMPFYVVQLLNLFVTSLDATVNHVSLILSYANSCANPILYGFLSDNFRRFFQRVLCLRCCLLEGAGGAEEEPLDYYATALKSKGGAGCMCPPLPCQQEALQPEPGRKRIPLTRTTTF
# ASSAY_METHOD_TEXT: Evaluation of agonist activities using human SSTR4-stably expressing cells (aequorin luminescence)
# COND: luminescence signal; 1 μmol/L somatostatin taken as 100%
Listed here are molecules together with their documented EC50.

input: EC50 for CN1CCC[C@H](C(=O)NC(C)(C)c2ccc(Br)cc2)C1 [Example 68] ?
output: > 100 nM

input: Field request: EC50 | item: CN1CCC[C@H](C(=O)NC(C)(C)c2cccc(S(C)(=O)=O)c2)C1 [Example 62]
output: > 100 nM

input: Please look up its EC50: CN1CCC[C@H](C(=O)NC(C)(C)c2ccncc2)C1 [Example 58]
output: > 100 nM

###

# ASSAYED_TARGET: UniProt:P31391
# ASSAY_METHOD_TEXT: Evaluation of agonist activities using human SSTR4-stably expressing cells (aequorin luminescence)
# COND: luminescence signal; 1 μmol/L somatostatin taken as 100%
pEC50: −log10 of the molar value.
ASSAY_READOUT: pEC50

// below: answered molecules
- MOLECULE: "Cc1ccc(C(C)(C)NC(=O)[C@H]2CCCN(C)C2)cc1Cl"
  ASSAYED_TARGET: "UniProt:P31391"
  pEC50: 8.10
- MOLECULE: "CN1CCC[C@H](C(=O)NC(C)(C)c2ccccc2F)C1"
  ASSAYED_TARGET: "UniProt:P31391"
  pEC50: 7.20
- MOLECULE: "CSc1ccccc1C(C)(C)NC(=O)[C@H]1CCCN(C)C1"
  ASSAYED_TARGET: "UniProt:P31391"
  pEC50: 8.21
- MOLECULE: "CN1CCC[C@H](C(=O)NC(C)(C)c2c(F)cccc2Cl)C1"
  ASSAYED_TARGET: "UniProt:P31391"
  pEC50: 7.68
- MOLECULE: "Cc1ccccc1C(C)(C)NC(=O)[C@H]1CCCN(C)C1"
  ASSAYED_TARGET: "UniProt:P31391"
  pEC50: 7.89
- MOLECULE: "Cc1ccc(C(C)(C)NC(=O)C2CCCN(C)C2)cc1C (centres unmarked)"
  ASSAYED_TARGET: "UniProt:P31391"
  pEC50: 7.85

[1] COC1CC(C(=O)NC(C)(C)c2cccc(Cl)c2Cl)CN(C)C1 (centres unmarked)
[2] CN1CC[C@@H](c2ccccc2)[C@H](C(=O)NC(C)(C)c2cccc(Cl)c2Cl)C1 (relative stereo)
[3] CC1CC(C(=O)NC(C)(C)c2cccc3ccccc23)CN(C)C1 (centres unmarked)
input: Rank the 3 molecules: largest pEC50 first, smallest last. To answer, write out the labels according to the requested order.
output: 2, 3, 1
(2: 8.70, 3: 7.79, 1: 7.50)
